B1: library; numbered along this chain (parent)
chain: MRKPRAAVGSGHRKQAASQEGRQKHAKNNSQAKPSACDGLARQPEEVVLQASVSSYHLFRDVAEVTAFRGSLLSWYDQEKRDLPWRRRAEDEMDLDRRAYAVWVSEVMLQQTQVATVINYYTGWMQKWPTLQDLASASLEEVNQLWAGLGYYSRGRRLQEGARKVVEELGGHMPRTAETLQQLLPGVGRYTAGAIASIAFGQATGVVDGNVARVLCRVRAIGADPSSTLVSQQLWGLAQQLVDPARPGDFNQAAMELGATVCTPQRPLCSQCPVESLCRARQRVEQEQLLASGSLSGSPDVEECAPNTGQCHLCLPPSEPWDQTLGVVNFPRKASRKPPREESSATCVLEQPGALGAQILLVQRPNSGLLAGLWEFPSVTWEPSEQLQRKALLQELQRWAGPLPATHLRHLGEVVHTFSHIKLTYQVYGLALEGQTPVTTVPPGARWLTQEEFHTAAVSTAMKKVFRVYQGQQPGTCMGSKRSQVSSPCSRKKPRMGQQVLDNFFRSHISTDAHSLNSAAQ

# Variants of: B1
# protocol-summary: 8OG:A repair function score (normalized; synonymous = 0, nonsense = -1) (normalized log-likelihood score); higher = more repair activity (WT-like);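 further: cells sorted at 72 h after reporter transfection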
# experimental-setup: with 8OG:A DNA repair reporter (GFP) in HEK-293 MUTYH KO cells
measurement-type: 8OG:A repair function score
Write the value as a bare number.

Query (variant): L169S ; field requested: 8OG:A repair function score
-0.284

May I ask what 8OG:A repair function score has been recorded for W124A ?
-0.577

Find the recorded 8OG:A repair function score belonging to S510N and report it.
-0.0738

More entries:
Consider the variant shown here: V438R What is its recorded 8OG:A repair function score?
0.11

Which 8OG:A repair function score reading was recorded for the variant V362E ?
-0.932

Look up 8OG:A repair function score for this variant: S296F
-0.00655

Form field: reported 8OG:A repair function score of T191R
-1.16

Recorded 8OG:A repair function score for G161I , please?
-0.841

# lookup: 8OG:A repair function score of A147R
-0.11

Give the measured 8OG:A repair function score of L430T .
-0.477

Quick one: 8OG:A repair function score of T308F ?
-0.0849

Which 8OG:A repair function score value belongs to W128I ?
-0.397

What 8OG:A repair function score value was documented for this variant, V230H ?
-0.63

Recorded 8OG:A repair function score of S344V , please.
-0.00413

What value of measured 8OG:A repair function score is listed for G248I ?
-1.02

Given the variant T439F , what is its reported 8OG:A repair function score?
-0.0571

Please look up its 8OG:A repair function score: V48T
-0.0154

Fill in the blank: the reported 8OG:A repair function score of T122S is ____.
-0.0596
